- experiment: molar heat capacity at constant pressure
- condition-context: 375 K; 101.33 kPa; Liquid; DSC
± gives the expanded uncertainty stated by the source.
In this section we review reported molar heat capacity at constant pressure values for a set of compounds.

[ask] Which molar heat capacity at constant pressure value is on record for CCCCCCCCCC(=O)OCC(COC(=O)CCCCCCCCC)OC(=O)CCCCCCCCC [1,2,3-propanetriyl tridecanoate] ?
[reply] 1196 ± 49 J/K/mol

[ask] Which molar heat capacity at constant pressure value is on record for CCCCCCCCCCCCCC(=O)OCC(COC(=O)CCCCCCCCCCCCC)OC(=O)CCCCCCCCCCCCC [1,2,3-propanetriyl tri(tetradecanoate)] ?
[reply] 1606 ± 65 J/K/mol

[ask] Which molar heat capacity at constant pressure value is on record for CCCCCCCCCCCC(=O)OCC(COC(=O)CCCCCCCCCCC)OC(=O)CCCCCCCCCCC [1,2,3-propanetriyl tridodecanoate] ?
[reply] 1407 ± 57 J/K/mol

[ask] Which molar heat capacity at constant pressure value is on record for CCCCCCCC(=O)OCC(COC(=O)CCCCCCC)OC(=O)CCCCCCC [1,2,3-propanetriol trioctanoate] ?
[reply] 997.2 ± 40 J/K/mol

* * *

- experiment: molar heat capacity at constant pressure
- condition-context: 410 K; 101.33 kPa; Liquid; DSC
In this section we review reported molar heat capacity at constant pressure values for a set of molecules.
The reply should be a number in J/K/mol, with the unit left off.

See these solved cases before continuing.
CCCCCCCCCCCC(=O)OCC(COC(=O)CCCCCCCCCCC)OC(=O)CCCCCCCCCCC [1,2,3-propanetriyl tridodecanoate]: 1461
CCCCCCCCCCCCCC(=O)OCC(COC(=O)CCCCCCCCCCCCC)OC(=O)CCCCCCCCCCCCC [1,2,3-propanetriyl tri(tetradecanoate)]: 1686
CCCCCCCC(=O)OCC(COC(=O)CCCCCCC)OC(=O)CCCCCCC [1,2,3-propanetriol trioctanoate]: 1044

[ask] Which molar heat capacity at constant pressure value is on record for CCCCCCCCCC(=O)OCC(COC(=O)CCCCCCCCC)OC(=O)CCCCCCCCC [1,2,3-propanetriyl tridecanoate] ?
[reply] 1241

* * *

- experiment: molar heat capacity at constant pressure
- condition-context: 355 K; 101.33 kPa; Liquid; DSC
outcome-measure: molar heat capacity at constant pressure (J/K/mol)
The reply should be a number in J/K/mol, with the unit left off.

See these solved cases before continuing.
CCCCCCCCCC(=O)OCC(COC(=O)CCCCCCCCC)OC(=O)CCCCCCCCC [1,2,3-propanetriyl tridecanoate]: 1166
CCCCCCCCCCCCCC(=O)OCC(COC(=O)CCCCCCCCCCCCC)OC(=O)CCCCCCCCCCCCC [1,2,3-propanetriyl tri(tetradecanoate)]: 1557
CCCCCCCCCCCC(=O)OCC(COC(=O)CCCCCCCCCCC)OC(=O)CCCCCCCCCCC [1,2,3-propanetriyl tridodecanoate]: 1361

Moving on to another molecule below.
[ask] Which molar heat capacity at constant pressure value is on record for CCCCCCCC(=O)OCC(COC(=O)CCCCCCC)OC(=O)CCCCCCC [1,2,3-propanetriol trioctanoate] ?
[reply] 970.7

* * *

- condition-context: 370 K; 101.33 kPa; Liquid; Laser flash apparatus
outcome-measure: thermal conductivity (W/m/K)
The reply should be a number in W/m/K, with the unit left off.

[ask] Which thermal conductivity value is on record for CCCCCCCCCCCCCC(=O)OCC(COC(=O)CCCCCCCCCCCCC)OC(=O)CCCCCCCCCCCCC [1,2,3-propanetriyl tri(tetradecanoate)] ?
[reply] 0.169

[ask] Which thermal conductivity value is on record for CCCCCCCCCC(=O)OCC(COC(=O)CCCCCCCCC)OC(=O)CCCCCCCCC [1,2,3-propanetriyl tridecanoate] ?
[reply] 0.15

[ask] Which thermal conductivity value is on record for CCCCCCCCCCCC(=O)OCC(COC(=O)CCCCCCCCCCC)OC(=O)CCCCCCCCCCC [1,2,3-propanetriyl tridodecanoate] ?
[reply] 0.159

[ask] Which thermal conductivity value is on record for CCCCCCCC(=O)OCC(COC(=O)CCCCCCC)OC(=O)CCCCCCC [1,2,3-propanetriol trioctanoate] ?
[reply] 0.148
